Test system: Pepsin
Assay: Stability of compound assessed as Pepsin (unknown origin) mediated compound degradation by measuring half-life by HPLC analysis
Format: ADME
Details: human
Square brackets hold non-standard residues; d marks the D form. Peptide text beside a SMILES is read from it. * marks the point of attachment. ξ: configuration not given here. C18 diacid = O=C(O)CCCCCCCCCCCCCCCCC(=O)*; Stearoyl = CCCCCCCCCCCCCCCCCC(=O)*; Palmitoyl = CCCCCCCCCCCCCCCC(=O)*; ξR = N=C(N)NCCCC(N)C(=O)O
A collection of compounds and their measured half-life
Answer format: numeric, min implied, no suffix.

| compound | assayed_target | units_symbol | half-life |
| --- | --- | --- | --- |
| CCCCCCCCCCCCCCCC(=O)N[C@H](C(=O)N[C@@H](C)C(=O)N[C@@H](CCC(N)=O)C(=O)N[C@@H](CCC(=O)O)C(=O)N[C@@H](CC(C)C)C(=O)N[C@@H](CCCNC(=N)N)C(=O)N[C@@H](CCCNC(=N)N)C(=O)N[C@H](C(=O)NCC(=O)N[C@@H](CC(=O)O)C(=O)N[C@@H](CCC(=O)O)C(=O)N[C@@H](Cc1ccccc1)C(=O)O)[C@@H](C)CC)[C@@H](C)CC (Palmitoyl-IAQELRRIGDEF-OH) | Pepsin | min | 162 |
| CCCCCCCCCCCCCCCCCC(=O)N[C@H](C(=O)N[C@@H](C)C(=O)N[C@@H](CCC(N)=O)C(=O)N[C@@H](CCC(=O)O)C(=O)N[C@@H](CC(C)C)C(=O)N[C@@H](CCCNC(=N)N)C(=O)NC(CCCNC(=N)N)C(=O)N[C@H](C(=O)NCC(=O)N[C@@H](CC(=O)O)C(=O)N[C@@H](CCC(=O)O)C(=O)N[C@@H](Cc1ccccc1)C(=O)O)[C@@H](C)CC)[C@@H](C)CC (stereo partly drawn) (Stearoyl-IAQELR[ξR]IGDEF-OH) | Pepsin | min | 442 |

Okay, next one:
Task: So what does the record say about half-life for CC[C@H](C)[C@H](NC(=O)CCCCCCCCCCCCCCCCC(=O)O)C(=O)N[C@@H](C)C(=O)N[C@@H](CCC(N)=O)C(=O)N[C@@H](CCC(=O)O)C(=O)N[C@@H](CC(C)C)C(=O)N[C@@H](CCCNC(=N)N)C(=O)NC(CCCNC(=N)N)C(=O)N[C@H](C(=O)NCC(=O)N[C@@H](CC(=O)O)C(=O)N[C@@H](CCC(=O)O)C(=O)N[C@@H](Cc1ccccc1)C(=O)O)[C@@H](C)CC (stereo partly drawn) ({C18 diacid}-IAQELR[ξR]IGDEF-OH) ?
Output: 406

###

Biological target: Tyrosine-protein phosphatase non-receptor type 2 (Homo sapiens, UniProt P17706)
Sequence (P17706 whole entry): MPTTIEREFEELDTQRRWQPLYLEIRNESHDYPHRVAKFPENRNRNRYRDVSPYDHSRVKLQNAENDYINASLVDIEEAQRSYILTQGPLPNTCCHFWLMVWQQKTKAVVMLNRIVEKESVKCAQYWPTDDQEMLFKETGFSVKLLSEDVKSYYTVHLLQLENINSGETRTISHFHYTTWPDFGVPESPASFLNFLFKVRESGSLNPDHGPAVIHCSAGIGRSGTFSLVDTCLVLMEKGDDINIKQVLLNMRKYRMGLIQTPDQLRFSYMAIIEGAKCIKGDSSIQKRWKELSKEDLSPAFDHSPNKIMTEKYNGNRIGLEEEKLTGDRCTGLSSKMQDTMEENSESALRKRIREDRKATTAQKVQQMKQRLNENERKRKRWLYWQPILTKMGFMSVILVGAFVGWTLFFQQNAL
Assay: Inhibition of recombinant human TC-PTP (1 to 314 residues) expressed in baculovirus infected insect cells using pNPP as substrate assessed as substrate hydrolysis
Square brackets hold non-standard residues; d marks the D form. Peptide text beside a SMILES is read from it. * marks the point of attachment. ξ: configuration not given here. C22 diacid = O=C(O)CCCCCCCCCCCCCCCCCCCCC(=O)*; C18 diacid = O=C(O)CCCCCCCCCCCCCCCCC(=O)*; Stearoyl = CCCCCCCCCCCCCCCCCC(=O)*; Myristoyl = CCCCCCCCCCCCCC(=O)*; ξR = N=C(N)NCCCC(N)C(=O)O
A collection of compounds and their measured IC50

Field: example entries. Status: answers known.
| compound | IC50 |
| --- | --- |
| CCCCCCCCCCCCCCCCCC(=O)N[C@H](C(=O)N[C@@H](C)C(=O)N[C@@H](CCC(N)=O)C(=O)N[C@@H](CCC(=O)O)C(=O)N[C@@H](CC(C)C)C(=O)N[C@@H](CCCNC(=N)N)C(=O)NC(CCCNC(=N)N)C(=O)N[C@H](C(=O)NCC(=O)N[C@@H](CC(=O)O)C(=O)N[C@@H](CCC(=O)O)C(=O)N[C@@H](Cc1ccccc1)C(=O)O)[C@@H](C)CC)[C@@H](C)CC (some centres undefined) (Stearoyl-IAQELR[ξR]IGDEF-OH) | 13.6 µM |
| CC[C@H](C)[C@H](NC(=O)CCCCCCCCCCCCCCCCC(=O)O)C(=O)N[C@@H](C)C(=O)N[C@@H](CCC(N)=O)C(=O)N[C@@H](CCC(=O)O)C(=O)N[C@@H](CC(C)C)C(=O)N[C@@H](CCCNC(=N)N)C(=O)NC(CCCNC(=N)N)C(=O)N[C@H](C(=O)NCC(=O)N[C@@H](CC(=O)O)C(=O)N[C@@H](CCC(=O)O)C(=O)N[C@@H](Cc1ccccc1)C(=O)O)[C@@H](C)CC (some centres undefined) ({C18 diacid}-IAQELR[ξR]IGDEF-OH) | > 50 µM |
| CC[C@H](C)[C@H](NC(=O)CCCCCCCCCCCCCCCCCCCCC(=O)O)C(=O)N[C@@H](C)C(=O)N[C@@H](CCC(N)=O)C(=O)N[C@@H](CCC(=O)O)C(=O)N[C@@H](CC(C)C)C(=O)N[C@@H](CCCNC(=N)N)C(=O)NC(CCCNC(=N)N)C(=O)N[C@H](C(=O)NCC(=O)N[C@@H](CC(=O)O)C(=O)N[C@@H](CCC(=O)O)C(=O)N[C@@H](Cc1ccccc1)C(=O)O)[C@@H](C)CC (some centres undefined) ({C22 diacid}-IAQELR[ξR]IGDEF-OH) | > 50 µM |

Task: So what does the record say about IC50 for CCCCCCCCCCCCCC(=O)N[C@H](C(=O)N[C@@H](C)C(=O)N[C@@H](CCC(N)=O)C(=O)N[C@@H](CCC(=O)O)C(=O)N[C@@H](CC(C)C)C(=O)N[C@@H](CCCNC(=N)N)C(=O)NC(CCCNC(=N)N)C(=O)N[C@H](C(=O)NCC(=O)N[C@@H](CC(=O)O)C(=O)N[C@@H](CCC(=O)O)C(=O)N[C@@H](Cc1ccccc1)C(=O)O)[C@@H](C)CC)[C@@H](C)CC (some centres undefined) (Myristoyl-IAQELR[ξR]IGDEF-OH) ?
Output: > 50 µM

###

A collection of molecules and their measured fold change (FC)
Molecular target: Chymotrypsin (Homo sapiens, UniProt Q99895+P17538+P40313+Q6GPI1)
Test: Stability of compound assessed as chymotrypsin (unknown origin) mediated compound degradation by measuring fold change of half-life by RP-HPLC analysis relative to BimBH312-mer peptide
Format: ADME, protein assay
Square brackets hold non-standard residues; d marks the D form. Peptide text beside a SMILES is read from it. * marks the point of attachment. ξ: configuration not given here. C22 diacid = O=C(O)CCCCCCCCCCCCCCCCCCCCC(=O)*; Stearoyl = CCCCCCCCCCCCCCCCCC(=O)*; Palmitoyl = CCCCCCCCCCCCCCCC(=O)*; Myristoyl = CCCCCCCCCCCCCC(=O)*; ξR = N=C(N)NCCCC(N)C(=O)O

| molecule | fold change (FC) |
| --- | --- |
| CC[C@H](C)[C@H](NC(=O)CCCCCCCCCCCCCCCCCCCCC(=O)O)C(=O)N[C@@H](C)C(=O)N[C@@H](CCC(N)=O)C(=O)N[C@@H](CCC(=O)O)C(=O)N[C@@H](CC(C)C)C(=O)N[C@@H](CCCNC(=N)N)C(=O)NC(CCCNC(=N)N)C(=O)N[C@H](C(=O)NCC(=O)N[C@@H](CC(=O)O)C(=O)N[C@@H](CCC(=O)O)C(=O)N[C@@H](Cc1ccccc1)C(=O)O)[C@@H](C)CC (some centres undefined) ({C22 diacid}-IAQELR[ξR]IGDEF-OH) | 158.4 |
| CCCCCCCCCCCCCCCCCC(=O)N[C@H](C(=O)N[C@@H](C)C(=O)N[C@@H](CCC(N)=O)C(=O)N[C@@H](CCC(=O)O)C(=O)N[C@@H](CC(C)C)C(=O)N[C@@H](CCCNC(=N)N)C(=O)NC(CCCNC(=N)N)C(=O)N[C@H](C(=O)NCC(=O)N[C@@H](CC(=O)O)C(=O)N[C@@H](CCC(=O)O)C(=O)N[C@@H](Cc1ccccc1)C(=O)O)[C@@H](C)CC)[C@@H](C)CC (some centres undefined) (Stearoyl-IAQELR[ξR]IGDEF-OH) | 170.5 |
| CCCCCCCCCCCCCC(=O)N[C@H](C(=O)N[C@@H](C)C(=O)N[C@@H](CCC(N)=O)C(=O)N[C@@H](CCC(=O)O)C(=O)N[C@@H](CC(C)C)C(=O)N[C@@H](CCCNC(=N)N)C(=O)NC(CCCNC(=N)N)C(=O)N[C@H](C(=O)NCC(=O)N[C@@H](CC(=O)O)C(=O)N[C@@H](CCC(=O)O)C(=O)N[C@@H](Cc1ccccc1)C(=O)O)[C@@H](C)CC)[C@@H](C)CC (some centres undefined) (Myristoyl-IAQELR[ξR]IGDEF-OH) | 68.8 |

Okay, next one:
Task: So what does the record say about fold change (FC) for CCCCCCCCCCCCCCCC(=O)N[C@H](C(=O)N[C@@H](C)C(=O)N[C@@H](CCC(N)=O)C(=O)N[C@@H](CCC(=O)O)C(=O)N[C@@H](CC(C)C)C(=O)N[C@@H](CCCNC(=N)N)C(=O)N[C@@H](CCCNC(=N)N)C(=O)N[C@H](C(=O)NCC(=O)N[C@@H](CC(=O)O)C(=O)N[C@@H](CCC(=O)O)C(=O)N[C@@H](Cc1ccccc1)C(=O)O)[C@@H](C)CC)[C@@H](C)CC (Palmitoyl-IAQELRRIGDEF-OH) ?
Output: 13

meta.source: ChEMBL document CHEMBL5316338
